Tested on: HaCat
Experiment: Cytotoxic Profiling of Annotated Libraries Using Quantitative High-Throughput Screening (AID 1296008); note: % is set by controls: 0 for no effect and ±100 for the full control effect; nearly all actives have a fitted effect of over 60% in size
Conditions: Five cell lines viability, CellTiter-Glo ATP luminescence, 48-72 h; active compounds read low
Records with an inconclusive call do not appear.
Endpoint Name: max response (%)

1. CC(C)C[C@H](CC(=O)O)C(=O)N[C@@H](Cc1c[nH]c2ccccc12)C(=O)N[C@@H](C)c1ccccc1: 3.15
2. C[N+](C)(C)CCCCCC[N+](C)(C)C: 2.98
3. CC(C)C(C)C=CC(C)C1CCC2C3=CC=C4CC(O)CCC4(C)C3CCC21C (configuration not stated): -0.819
4. CCOc1ccc(Nc2nc(-c3c(C)nc4ccccn34)cs2)cc1: 3.42
5. COc1ccc2cc(-c3nc(-c4ccc(S(C)=O)cc4)[nH]c3-c3ccncc3)ccc2c1 (configuration not stated): -7.74
6. CC(C)C(=O)Oc1ccc(CO)cc1[C@H](CCN(C(C)C)C(C)C)c1ccccc1: -23.8
7. CC(C)[C@H](CO)Nc1nc(Nc2ccc(C(=O)O)c(Cl)c2)c2ncn(C(C)C)c2n1: 4.58
8. O=C1NC(=O)C(=Cc2cccc(C(F)(F)F)c2)S1: -6.56
9. CS(=O)c1ccc(-c2nc(-c3ccc(F)cc3)c(-c3ccncc3)[nH]2)cc1 (configuration not stated): 2.48
10. CC(C)(C)c1ccc(C(O)CCCN2CCC(C(O)(c3ccccc3)c3ccccc3)CC2)cc1 (configuration not stated): 1.94
11. CC[C@H]1OC(=O)[C@H](C)C(=O)[C@H](C)[C@@H](O[C@H]2O[C@H](C)C[C@H](N(C)C)[C@@H]2O)[C@](C)(OC)C[C@@H](C)C(=O)[C@H](C)[C@H]2N(CCCCn3cnc(-c4cccnc4)c3)C(=O)O[C@]12C: -0.424
12. NC(=O)c1ccc2nc(-c3ccc(Oc4ccc(Cl)cc4)cc3)[nH]c2c1: -0.499

###

Assay: qHTS of pediatric cancer cell lines to identify multiple opportunities for drug repurposing: Primary screen for OHS-50 cells (AID 1347103); note: nearly all actives have a fitted effect of over 40% in size; note: potency is the fitted concentration of half-maximal effect
Settings: OHS-50 osteosarcoma viability, CellTiter-Glo luminescence, 48 h; series mostly up to 57.3 µM
Records with an inconclusive call do not appear. Activity calls are given as the source filed them. Calls come from the whole dose curve; as a rule, active = well fitted cell-killing curve with a large enough effect; inconclusive = small, poorly fitted or top-dose-only effect; inactive = no such curve, though single readings can be large or run the other way.
Endpoint Name: Potency

1. O=C(O)c1ccc(-c2cc3cccnc3c(-c3ccc4nonc4c3)n2)cc1: 27.3 µM (active)
2. COc1ccc2cccc(CCNC(C)=O)c2c1: inactive
3. O=C(O)C(O)Cc1ccc(O)c(O)c1 (stereo not given): inactive
4. C=C1C(=O)OC(CCCCCCCC)C1C(=O)O (stereo not given): inactive
5. CCOC(=O)C1=C(N)Oc2ccc(Br)cc2C1C(C#N)C(=O)OCC (stereo not given): inactive

###

Assay: Quantitative High-Throughput drug screen in 47 multiple myeloma cell lines against the NCATS MIPE library collection: UTMC2_PLB cell viability assay (AID 1919868); note: nearly all actives have a fitted effect of over 55% in size; note: potency is the fitted concentration of half-maximal effect
Conditions: CellTiter-Glo ATP luminescence, 48 h
Results filed as inconclusive are left out. Active and inactive are the calls of the source. Calls follow the shape of the dose curve; as a rule, active = well fitted cell-killing curve with a large enough effect; inconclusive = small, poorly fitted or top-dose-only effect, or effect the other way; inactive = no such curve, though single readings can be large or run the other way.
Endpoint Name: Potency

1) C[C@H]1[C@H](NC(=O)C(=NOC(C)(C)C(=O)O)c2csc(N)n2)C(=O)N1S(=O)(=O)O: inactive
2) CCc1ccc(OCc2ccccc2C(=O)Nc2ccc3nc(C)cc(N)c3c2)cc1: 3.32 µM (active)
3) CC(=O)Nc1ccc([C@H](C)C(=O)Nc2ncc(C(C)C)s2)cc1: 3.72 µM (active)
4) COCCOc1nc(-c2ccc(Cl)c(Cl)c2)n(-c2ccc(NC(=O)CCl)cc2)n1: 20.9 µM (active)
5) CC=CC(=O)N(CC)c1ccccc1C: inactive
6) O=C1NC(=O)C(=Cc2ccc3c(c2)OC(F)(F)O3)S1: 23.5 µM (active)
7) Cc1ccc(Nc2cc(-c3cccc(N4C(=O)c5ccccc5C4=O)c3)ncn2)cc1NS(C)(=O)=O: 20.9 µM (active)
8) c1ccc2c(Cc3c[nH]c4ccccc34)c[nH]c2c1: inactive
9) CN(C)c1cc(NC(=O)CNC(C)(C)C)c(O)c2c1C[C@@H]1C[C@H]3[C@H](N(C)C)C(=O)C(C(N)=O)=C(O)[C@@]3(O)C(=O)C1=C2O: 13.2 µM (active)
10) CC(C)C[C@H](CC(=O)O)C(=O)N[C@@H](Cc1c[nH]c2ccccc12)C(=O)N[C@@H](C)c1ccccc1: inactive
